Where do these numbers come from? They come from PubChem BioAssay AID1531.

- Tgt: Mitogen-activated protein kinase kinase kinase 2 (Homo sapiens)
- Test description: modulators of MEK5 binding to wildtype MEKK2, primary screen, biochemical, multiplex bead flow cytometry, Alexa488-MEK5 (AID 1531)
- Condition info: Alexa488-MEK5 binding to MEKK2 WT, at 10 µM, actives lie on both sides
Among all 290,000 compounds or so, about 3,300 (1.1%) were called active. Rule as the data show it: active = binding response below about 67% or above about 130%; inconclusive = no clear call, values can overlap the other calls; inactive = in between. The sample as a whole holds a higher share of actives than the screen did.
Field 'call' accepts Yes for active, No for inactive

Completed entries (count: 4):
1) CCN(CC)CCCNC(=O)c1ccc2c(=O)n(Cc3ccc4c(c3)OCO4)c(=S)[nH]c2c1    Yes
2) COc1ccccc1NC(=S)N1CCN(c2ccc(F)cc2)CC1    Yes
3) C=C(C)COc1ccc(-c2ncncc2-c2ccc(OC)cc2)c(O)c1    No
4) CC1CCC2CCCCC2N1C(=O)c1cc([N+](=O)[O-])cc([N+](=O)[O-])c1 (stereo not drawn)    No

Could you check what this test reported for `COc1ccccc1NC(=S)N1CCN(C(c2ccccc2)c2ccccc2)CC1` ?
No

Could you check what this test reported for `COc1ccc(Cn2c(=S)[nH]c3cc(C(=O)NCCCN4CCOCC4)ccc3c2=O)cc1` ?
No

Could you check what this test reported for `COc1ccc(N=Cc2c(O)[nH]c3ccccc23)cc1OC` ?
No

Could you check what this test reported for O=C(O)C(c1ccccc1)N1C(=O)/C(=C\c2ccc(-c3cccc(Cl)c3)o2)SC1=S (stereo not drawn) ?
No
